Parameter Maltose/glucose ratio: see the listing below.
tested on: modified PQQGDH; test: Substrate specificity using glucose assay system (ferricyanide reduction, absorbance 420 nm); assay type: biochemical; details: potassium phosphate buffer pH 7.0; reagent 1%; substrate 4.8 mM; control 0.85
Observed property: Maltose/glucose ratio

* O=C(O)CCC(=O)O | 0.47
* Cl.NCCCC[C@H](N)C(=O)O [L-lysine hydrochloride] | 0.71
* CC(C)(CC(=O)O)CC(=O)O | 0.44
* Cl.N [Ammonium chloride] | 0.58
* O=C(O)CCCCCC(=O)O | 0.58
* N.N.O=C(O)CC(O)(CC(=O)O)C(=O)O [Diammonium hydrogen citrate] | 0.52

Data credit: patent US7381540B2
